- Assayed target: GRK2 (Homo sapiens, UniProt P25098)
- Sequence (P25098 1-689): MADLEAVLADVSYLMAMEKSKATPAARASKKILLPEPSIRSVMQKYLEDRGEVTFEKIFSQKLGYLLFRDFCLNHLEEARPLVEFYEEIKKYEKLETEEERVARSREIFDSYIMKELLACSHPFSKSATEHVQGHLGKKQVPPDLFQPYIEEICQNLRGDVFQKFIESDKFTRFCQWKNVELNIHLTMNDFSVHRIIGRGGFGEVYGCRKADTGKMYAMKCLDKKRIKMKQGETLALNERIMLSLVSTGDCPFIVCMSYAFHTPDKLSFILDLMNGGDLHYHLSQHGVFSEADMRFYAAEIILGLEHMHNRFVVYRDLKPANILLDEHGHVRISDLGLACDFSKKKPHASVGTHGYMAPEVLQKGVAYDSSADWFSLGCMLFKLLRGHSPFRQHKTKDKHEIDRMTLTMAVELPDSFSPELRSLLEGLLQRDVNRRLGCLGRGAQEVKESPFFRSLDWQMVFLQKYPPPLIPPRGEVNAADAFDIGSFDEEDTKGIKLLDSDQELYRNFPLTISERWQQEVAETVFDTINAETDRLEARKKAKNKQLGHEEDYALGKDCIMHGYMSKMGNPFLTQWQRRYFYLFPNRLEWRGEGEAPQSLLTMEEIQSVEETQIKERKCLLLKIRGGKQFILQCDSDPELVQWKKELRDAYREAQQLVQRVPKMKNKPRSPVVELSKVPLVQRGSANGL
- Test details: GRK2 Degradation Assay and Western Blot in PAXF1657 cells
- Assay type: cell-based
- Parameters: endogenous in cells; host or cells: PAXF1657
- Details: PAXF1657, 24 h; read-out: Degradation Assay - Full Dose Response: IC50 (uM) [cell line: PAXF1657, time point: 24 h]
Where a name gives a salt, the structure may show the parent alone.
Experimental endpoint: DC50 (µM)

INSERT INTO assay_data (compound, experimental_endpoint, data_value) VALUES
  ('C[C@@H](NC(=O)c1cccc(NCc2nnc(-c3ccncn3)n2C)c1)c1cccc(OCCCCCCOCCOCC(=O)N2CCN(c3cc4c(cc3F)C(=O)N(C3CCC(=O)NC3=O)C4=O)CC2)c1 (some centres unmarked)', 'DC50', 0.23),
  ('C[C@@H](NC(=O)c1cccc(NCc2nnc(-c3ccncn3)n2C)c1)c1cccc(OCCCCCCOCCOCCN2CCN(c3ccc4c(c3)CN(C3CCC(=O)NC3=O)C4=O)CC2)c1 (some centres unmarked)', 'DC50', 0.06),
  ('C[C@@H](NC(=O)c1cccc(NCc2nnc(-c3ccncn3)n2C)c1)c1cccc(OCCCCCCOCC(=O)N2CCN(c3ccc4c(c3)CN(C3CCC(=O)NC3=O)C4=O)CC2)c1 (some centres unmarked)', 'DC50', 0.12),
  ('C[C@@H](NC(=O)c1cccc(NCc2nnc(-c3ccncn3)n2C)c1)c1cccc(OCCCCCCOCCOCCNc2cccc3c2CN(C2CCC(=O)NC2=O)C3=O)c1 (some centres unmarked)', 'DC50', 0.11),
  ('C[C@@H](NC(=O)c1cccc(NCc2nnc(-c3ccncn3)n2C)c1)c1cccc(OCCCCCCOCCOCCN2CCN(c3cc4c(cc3F)C(=O)N(C3CCC(=O)NC3=O)C4=O)CC2)c1 (some centres unmarked)', 'DC50', 0.12),
  ('Cc1ncsc1-c1ccc(CNC(=O)[C@@H]2C[C@@H](O)CN2C(=O)[C@@H](NC(=O)CCCOCCOCCOCCCCCCCCOc2ccc([C@@H](C)NC(=O)c3cccc(NCc4nnc(-c5ccncn5)n4C)c3)cc2)C(C)(C)C)cc1', 'DC50', 2.57),
  ('Cc1ncsc1-c1ccc(CNC(=O)[C@@H]2C[C@@H](O)CN2C(=O)[C@@H](NC(=O)COCCCOCCCCCOc2cccc([C@@H](C)NC(=O)c3cccc(NCc4nnc(-c5ccncn5)n4C)c3)c2)C(C)(C)C)cc1', 'DC50', 0.38),
  ('C[C@@H](NC(=O)c1cccc(NCc2nnc(-c3ccncn3)n2C)c1)c1cccc(OCCCCCCOCCOCC(=O)N2CCN(c3ccc4c(c3)CN(C3CCC(=O)NC3=O)C4=O)CC2)c1 (some centres unmarked) [Compound D138, hydrochloride]', 'DC50', 0.137);

###

- Assayed target: GRK2 (Homo sapiens)
- Test details: GRK2 Inhibition Assay (TR-FRET, Example 1)
- Format: biochemical
- Details: Table 4; Example 1 assay; read-out: Enzymatic GRK2 IC50: Av IC50 GRK2
- Experimental: Assay: GRK2 enzyme (1 nM final concentration) was diluted in 25 mM HEPES, 10 mM MgCl2, 2 mM DTT, 0.01% Tween-20, and 1 mM EGTA. Then the GRK2 mixture was added into ProxiPlate-384 white plate and pre-incubated for 30 min with test compounds at room temperature. […] After 60 min incubation time at room temperature, TR-FRET signal was measured by EnVision plate reader.
Experimental endpoint: IC50 (µM)

INSERT INTO measurements (compound, result_modifier, data_value) VALUES
  ('Cc1ncsc1-c1ccc(CNC(=O)[C@@H]2C[C@@H](O)CN2C(=O)[C@@H](NC(=O)COCCCOCCCCCOc2ccc([C@H](C)NC(=O)c3cccc(NCc4nnc(-c5ccncn5)n4C)c3)cc2)C(C)(C)C)cc1', '>', 1),
  ('C[C@@H](NC(=O)c1cccc(NCc2nnc(-c3ccncn3)n2C)c1)c1cccc(OCCCCCCOCC(=O)N2CCN(c3cc4c(cc3F)C(=O)N(C3CCC(=O)NC3=O)C4=O)CC2)c1 (stereo partly drawn)', '=', 0.00905),
  ('C[C@@H](NC(=O)c1cccc(NCc2nnc(-c3ccncn3)n2C)c1)c1cccc(OCCCCCOCCCOCCNc2cccc3c2CN(C2CCC(=O)NC2=O)C3=O)c1 (stereo partly drawn)', '=', 0.0238),
  ('Cn1c(CNc2cccc(C(=O)NCc3cc(OCCCCCOCCCOCC(=O)Nc4cccc5c4CN(C4CCC(=O)NC4=O)C5=O)ccc3F)c2)nnc1-c1ccncn1 (stereo not drawn)', '=', 0.0823),
  ('C[C@@H](NC(=O)c1cccc(NCc2nnc(-c3ccncn3)n2C)c1)c1cccc(OCCCCCOCCCOCCOc2ccc3c(c2)CN(C2CCC(=O)NC2=O)C3=O)c1 (stereo partly drawn)', '=', 0.025),
  ('C[C@@H](NC(=O)c1cccc(NCc2nnc(-c3ccncn3)n2C)c1)c1cccc(OCCCCCCOCCOCC(=O)N2CCN(c3cc4c(cc3F)C(=O)N(C3CCC(=O)NC3=O)C4=O)CC2)c1 (stereo partly drawn)', '=', 0.0136);

###

- Assayed target: GRK2 (Homo sapiens)
- Test details: GRK2 Degradation Assay and Western Blot in PAXF1657 cells
- Assay type: cell-based
- Parameters: endogenous in cells; host or cells: PAXF1657
- Details: 0.3 uM, PAXF1657 EV, 24 hrs; read-out: % GRK2 degradation at 0.3 uM in PAXF1657 EV (24 hrs)
- Experimental: General Protocol: Degradation Assay and Western Blot. PAXF1657 cells were plated in 6-well, 24-well plates or 60 mm tissue culture treated dishes and incubated at 37° C. until 70% confluency. […] Samples were mixed with NuPAGE LDS sample buffer and NuPAGE sample reducing buffer (3×), vortexed and heated at 95° C. for 10 min, and then analyzed by SDS-PAGE (NuPAGE 4-12%) followed by transfer to nitrocellulose membrane. […]
# inhibition at 0.3 µM per entry
Experimental endpoint: inhibition at 0.3 µM

INSERT INTO measurements (compound, experimental_endpoint, data_value) VALUES
  ('C[C@@H](NC(=O)c1cccc(NCc2nnc(-c3ccncn3)n2C)c1)c1cccc(OCCCCCCOCCOCCOCCCCCC(=O)Nc2cccc3c2CN(C2CCC(=O)NC2=O)C3=O)c1 (stereo partly drawn) [Compound D57]', 'inhibition at 0.3 µM', '70%'),
  ('Cc1ncsc1-c1ccc(CNC(=O)[C@@H]2C[C@@H](O)CN2C(=O)[C@@H](NC(=O)CCCCCOCCOCCOCCCCCCOc2ccc(C(F)(F)F)c(CNC(=O)c3cccc(NCc4nnc(-c5ccncn5)n4C)c3)c2)C(C)(C)C)cc1 [Compound D92]', 'inhibition at 0.3 µM', '34%'),
  ('Cc1ncsc1-c1ccc(CNC(=O)[C@@H]2C[C@@H](O)CN2C(=O)[C@@H](NC(=O)CCCCc2cn(CCCCCOc3cccc(CNC(=O)c4cccc(NCc5nnc(-c6ccncn6)n5C)c4)c3)nn2)C(C)(C)C)cc1 [Compound D80]', 'inhibition at 0.3 µM', '6%'),
  ('Cn1c(CNc2cccc(C(=O)NCc3cccc(OCCCCCOCCCOCC(=O)Nc4cccc5c4CN(C4CCC(=O)NC4=O)C5=O)c3)c2)nnc1-c1ccncn1 (stereo not drawn) [Compound D64]', 'inhibition at 0.3 µM', '62%'),
  ('Cn1c(CNc2cccc(C(=O)NCc3cccc(OCCCCCn4cc(CCCC(=O)Nc5cccc6c5CN(C5CCC(=O)NC5=O)C6=O)nn4)c3)c2)nnc1-c1ccncn1 (stereo not drawn) [Compound D59]', 'inhibition at 0.3 µM', '33%'),
  ('Cn1c(CNc2cccc(C(=O)NCc3cccc(OCCCCCCOCCOCC(=O)Nc4cccc5c4CN(C4CCC(=O)NC4=O)C5=O)c3)c2)nnc1-c1ccncn1 (stereo not drawn) [Compound D72]', 'inhibition at 0.3 µM', '36%');

Just for reference, patent US20240174637A1 is where these values come from.
